conditions: 313.15 K; 101 kPa; Liquid
Please enter rule met where mass density is greater than or equal to 900 kg/m3, and rule not met where it is lower.

Please check the record CC(C)CCl [1-chloro-2-methylpropane] and state if its mass density is at or above 900 kg/m3. rule not met

Say whether CCC(C)Cl (stereo unspecified) [2-chlorobutane] shows mass density of 900 kg/m3 or more. rule not met

Is mass density at least 900 kg/m3? Consider CC(C)(C)Cl [2-chloro-2-methylpropane] rule not met

Say whether CCCCl [1-chloropropane] shows mass density of 900 kg/m3 or more. rule not met

Check if mass density >= 900 kg/m3 (inclusive). Item: C1COCCO1 [1,4-dioxane] rule met

Could you please find out whether CCCCCl [1-chlorobutane] has mass density that meets 900 kg/m3 or exceeds it? rule not met

----------
Items are presented alongside their recorded refractive index.
assay: refractive index (Na D-line) (dimensionless); conditions: 313.15 K; 101.33 kPa; Liquid; Standard Abbe refractometry
Note: the reply should be a number with no unit written.

For orientation, consider the following solved cases.
CCCCCl	1.39133
CC(C)CCl	1.38686
CC(C)(C)Cl	1.37314
CCCCl	1.37673
C1COCCO1	1.41264

Assign refractive index to the following record: CCC(C)Cl (stereo unspecified) 1.38573

----------
settings: 298.15 K; 101 kPa; Liquid
# mass density values compiled below
State just the number; it will be interpreted in kg/m3.

Sample answers from the record:
CC(C)CCl	871.13
CCCCl	884.26
CCCCCl	880.69
CCC(C)Cl (stereo unspecified)	867.4
C1COCCO1	1027.87

Could you now consider this next compound?
Quickly give me recorded mass density for CC(C)(C)Cl 836.45
